procedure.details: Selectivity index, ratio of IC50 for human FR2 cells to IC50 for human PC3 cells
Assay type: functional
quantity: Ratio IC50
Enter the number alone.

entry_smiles=C=C(C)[C@@H]1CC[C@]2(C(=O)O)CC[C@]3(C)[C@H](CC[C@@H]4[C@@]5(C)C/C(=C\c6cccc([N+](=O)[O-])c6)[C@H](O)C(C)(C)[C@@H]5CC[C@]43C)[C@@H]12 quantity="Ratio IC50" recorded_measurement=2.941

Quote Ratio IC50 reported for "C=C(C)[C@@H]1CC[C@]2(C(=O)O)CC[C@]3(C)[C@H](CC[C@@H]4[C@@]5(C)C/C(=C\c6cccc(Br)c6)[C@H](O)C(C)(C)[C@@H]5CC[C@]43C)[C@@H]12" please. 2.72

Return value of Ratio IC50 for input "C=C(C)[C@@H]1CC[C@]2(C(=O)O)CC[C@]3(C)[C@H](CC[C@@H]4[C@@]5(C)C/C(=C\c6cccc(Br)c6)C(=O)C(C)(C)[C@@H]5CC[C@]43C)[C@@H]12" , no commentary. 1.94

Please give measured Ratio IC50 of the following entry: "C=C(C)[C@@H]1CC[C@]2(C(=O)O)CC[C@]3(C)[C@H](CC[C@@H]4[C@@]5(C)C/C(=C\c6ccc(Br)o6)C(=O)C(C)(C)[C@@H]5CC[C@]43C)[C@@H]12" 2.389

Supply Ratio IC50 value. Item: "C=C(C)[C@@H]1CC[C@]2(C(=O)O)CC[C@]3(C)[C@H](CC[C@@H]4[C@@]5(C)C/C(=C\c6ccccc6Br)C(=O)C(C)(C)[C@@H]5CC[C@]43C)[C@@H]12" 2.497
